- tested-target: purified recombinant linear UB dimers

protein | in vitro deubiquitylation activity
GST-OTU4c (protein) MMICYSPITTCSRNAISIKRHLGSRLYGVVAHGSSKFSCYSLLSGLSRRHYTGFRVSVSNRPSSWHDKGLFGFAYTGVIVSLLVCYSSTSQSAYADSSRDKDANNVHHHSSDGKFHNGKRVYTDYSIIGIPGDGRCLFRSVAHGFCLRSGKLAPGEKMQRELADELRTRVADEFIQRRQETEWFVEGDFDTYVRQIRDPHVWGGEPELFMASHVLQMPITVYMKDDKAGGLISIAEYGQEYGKDDPIRVLYHGFGHYDALLLHESKASIPKSKL | -
His-tagged OTU9 (protein) MGYEPDPDALRWGLHDLEVCTLTNAGSCSSVTRYESGGGGTQGYVREGYNQPVTGYVDNDAVIAQFYQDELSRVARAEASGINSLSPTSVVAQDWPHPHQGQENQGEAIDITQESDILHNHNGNMEDKNVARIRFEGGQSSPSRDDDSVCSVEIEEESWSEVGKRLNQMIPIAHVPKINGELPSEDEQISDHERLFQRLQLYGLVENKIEGDGNCQFRSLSDQLYRSPEHHNFVREQVVNQLAYNREIYEGYVPMAYNDYLKAMKRNGEWGDHVTLQAAADLFGVRMFVITSFKDTCYIEILPHFQKSNRLICLSFWAEVHYNSIYPEGELPIPEGKKKKKYWVF | -

Measured values drawn from patent US20150353909 for this set.
